- settings: in isopentanol, 318.1 K
property-label: solubility (mole fraction)

// query solubility (mole fraction) value for entry CC(=O)Oc1cc(C)c(OC(C)=O)c2ccccc12
0.0183

----------
- settings: in methanol, 288.1 K
property-label: solubility (mole fraction)
Write the value as a bare number.

// query solubility (mole fraction) value for entry CC(=O)Oc1cc(C)c(OC(C)=O)c2ccccc12
0.0057

----------
- settings: in methyl acetate, 303.1 K
property-label: solubility (mole fraction)
Write the value as a bare number.

// query solubility (mole fraction) value for entry CC(=O)Oc1cc(C)c(OC(C)=O)c2ccccc12
0.14

----------
- settings: in cyclohexanol, 283.1 K
property-label: solubility (mole fraction)
Write the value as a bare number.

// query solubility (mole fraction) value for entry CC(=O)Oc1cc(C)c(OC(C)=O)c2ccccc12
0.00261
